Below, each entry is listed alongside its reported log10(IC50).
# tgt: IMP-1 (Serratia marcescens, UniProt P52699)
# Sequence (P52699 19-246, looked up, species assumed): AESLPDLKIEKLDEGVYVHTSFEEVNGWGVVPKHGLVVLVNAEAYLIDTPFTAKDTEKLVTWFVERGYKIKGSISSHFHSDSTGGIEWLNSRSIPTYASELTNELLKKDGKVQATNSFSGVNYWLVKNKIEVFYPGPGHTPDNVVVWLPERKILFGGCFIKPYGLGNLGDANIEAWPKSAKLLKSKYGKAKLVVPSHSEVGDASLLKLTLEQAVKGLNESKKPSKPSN
# protocol summary: Enzyme activity: determination of IC50, fluorescence assay with CCF2-FA substrate
# Format: biochemical
# measurement parameters: enzyme 2 pM, CCF2-FA 1.25 μM, 2 hours at 25° C.; read-out: IMP1 IC50
readout label: log10(IC50) (log10 of the value in nM)

compound: CC(C)[C@H](C(=O)O)[C@H](Cc1ccc(C2=CCNC2)c(F)c1)c1nnn[nH]1 [Example 69]
log10(IC50): 2.89
--
compound: O=C(O)[C@@H](CCCC(F)(F)F)[C@H](Cc1ccccc1)c1nnn[nH]1 [Example 6]
log10(IC50): 2.86
--
compound: CCC[C@H](C(=O)O)[C@H](Cc1ccc(-c2cccc(CN3CCOCC3)c2)cc1)c1nn[nH]n1 [Example 207]
log10(IC50): 2.00
--
compound: CCC[C@H](C(=O)O)[C@H](Cc1ccc(CN2CCNCC2)cc1)c1nnn[nH]1 [Example 55]
log10(IC50): 2.91
--
compound: CCC[C@H](C(=O)O)[C@H](Cc1ccc(-c2cccc3c2CNC3=O)cc1)c1nnn[nH]1 [Example 238]
log10(IC50): 1.69
--
compound: CC(C)C[C@H](C(=O)O)[C@H](Cc1ccc(S(C)(=O)=O)cc1)c1nn[nH]n1 [Example 50]
log10(IC50): 2.00
--
compound: CCCC[C@@H](C(=O)O)[C@@H](Cc1ccc(-c2c(C)nn(C)c2C)cc1)c1nn[nH]n1 [Example 185]
log10(IC50): 1.04
--
compound: CCC[C@H](C(=O)O)[C@H](Cc1ccc(OCCN)nc1)c1nnn[nH]1 [Example 130]
log10(IC50): 3.92

###

Listing of entries alongside the reported pIC50.
# tgt: NDM-1 (Klebsiella pneumoniae, UniProt C7C422)
# Sequence (C7C422 29-270, looked up, species assumed): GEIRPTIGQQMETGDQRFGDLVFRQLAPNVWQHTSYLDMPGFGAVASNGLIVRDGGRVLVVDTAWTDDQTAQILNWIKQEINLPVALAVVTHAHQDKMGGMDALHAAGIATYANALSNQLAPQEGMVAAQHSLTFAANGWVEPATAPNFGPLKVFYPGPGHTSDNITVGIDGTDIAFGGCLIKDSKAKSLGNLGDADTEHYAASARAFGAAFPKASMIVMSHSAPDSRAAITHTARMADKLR
# protocol summary: Enzyme activity: determination of IC50, fluorescence assay with CCF2-FA substrate
# Format: biochemical
# measurement parameters: enzyme 1 pM, CCF2-FA 1.25 μM, 2 hours at 25° C.; read-out: NDM1 IC50
pIC50: −log10 of the molar value.

molecule: CC(=O)N1CCC(C[C@H](c2nnn[nH]2)[C@@H](C(=O)O)C(C)C)CC1 [Example 90]
pIC50: 6.70
--
molecule: CCC[C@H](C(=O)O)[C@H](Cc1ccc(C#N)cn1)c1nnn[nH]1 [Example 84]
pIC50: 5.92
--
molecule: CC(C)C[C@H](C(=O)O)[C@H](Cc1ccc(C2CCNC2)nc1)c1nnn[nH]1 (some centres unmarked) [Example 100]
pIC50: 6.55
--
molecule: CC(C)[C@H](C(=O)O)[C@H](Cc1csc(C2=CCNC2)n1)c1nnn[nH]1 [Example 71]
pIC50: 6.24
--
molecule: CCC[C@H](C(=O)O)[C@H](Cc1ccc(-c2ccc3ccnc(C#N)c3c2)nc1)c1nnn[nH]1 [Example 162]
pIC50: 7.66

###

# tgt: VIM-1 (Pseudomonas aeruginosa)
# protocol summary: Enzyme activity: determination of IC50, fluorescence assay with CCF2-FA substrate
# Format: biochemical
# measurement parameters: enzyme 30 pM, CCF2-FA 1.25 μM, 2 hours at 25° C.; read-out: VIM1 IC50
pIC50: −log10 of the molar value.

smiles entry: O=C(O)[C@H](CCC1CCCCC1)[C@@H](Cc1ccccc1)c1nnn[nH]1
pIC50: 6.23
//
smiles entry: CCC[C@H](C(=O)O)[C@H](Cc1ccc(-c2cnc(N(C)S(C)(=O)=O)nc2)cc1)c1nnn[nH]1
pIC50: 8.80
//
smiles entry: CCC[C@H](C(=O)O)[C@H](Cc1ccc(N2CCC[C@@H](N)C2)cc1)c1nn[nH]n1
pIC50: 7.60
//
smiles entry: CCC[C@H](C(=O)O)[C@@H](Cc1ccc(-c2ccc3c(c2)OCC(=O)N3)cn1)c1nnn[nH]1
pIC50: 6.48
//
smiles entry: CC(C)C[C@H](C(=O)O)[C@H](Cc1ccc(-c2ccc(N)nc2)cn1)c1nn[nH]n1
pIC50: 7.31
//
smiles entry: CC(C)C[C@H](C(=O)O)[C@H](Cc1ccc(S(C)(=O)=O)cc1)c1nn[nH]n1
pIC50: 8.18
//
smiles entry: CCC[C@H](C(=O)O)[C@H](Cc1ccc(NCCO)cn1)c1nnn[nH]1
pIC50: 6.82
//
smiles entry: CCC[C@H](C(=O)O)[C@H](Cc1ccc(C2=CCNCC2)cn1)c1nnn[nH]1
pIC50: 7.17
